Tested on: Setaria viridis (SETVI)
Experiment: greenhouse post-emergence herbicidal efficacy against SETVI
Assay type: in vivo
Conditions: 21 days after application, 2 g of a.i./ha
Measured Efficacy by item
The reply should be a number in %, with the unit left off.

| Molecule | Measured parameter | Recorded number |
| --- | --- | --- |
| Cc1nnc(NC(=O)c2ccc(C(F)(F)F)c(-n3cccn3)c2Cl)o1 [A1-55] | Efficacy | 30 |

Please fill in: Efficacy reported for Cc1nnc(NC(=O)c2ccc(C(F)(F)F)c(S(C)(=O)=O)c2Cl)o1 [A1-36] = 65

Recorded result, CCS(=O)(=O)c1c(C(F)(F)F)ccc(C(=O)Nc2nnc(C)o2)c1Cl [A1-7] , Efficacy: 75

// Efficacy value for COc1c(Cl)ccc(-c2cc(N)c(Cl)c(C(=O)O)n2)c1F [halauxifen] : 0

Memo: CS(=O)(=O)c1ccc(C(=O)C2C(=O)CCCC2=O)c(Cl)c1COCC(F)(F)F [tembotrione] , reported Efficacy: 10

* * *

Tested on: Phalaris minor (PHAMI)
Assay: greenhouse post-emergence herbicidal efficacy against PHAMI
Format: in vivo
Conditions: 14 days after application; 2.5 g of a.i./ha
Measured parameter: Efficacy (%)
The answer is to be given in %; state only the numeric part.

| Compound | Measured parameter | Recorded number |
| --- | --- | --- |
| Cc1nnc(NC(=O)c2ccc(C(F)(F)F)c([S+](C)[O-])c2Cl)o1 (centres unmarked) | Efficacy | 0 |
| Cc1nnc(NC(=O)c2ccc(C(F)(F)F)c(S(C)(=O)=O)c2C)o1 | Efficacy | 30 |
| Cc1nnc(NC(=O)c2ccc(C(F)(F)F)c(S(C)(=O)=O)c2Cl)o1 | Efficacy | 0 |
| Cc1nnc(NC(=O)c2ccc(C(F)(F)F)c(-n3cccn3)c2Cl)o1 | Efficacy | 0 |

Kindly note the recorded Efficacy for COC(=O)c1ccc(CNS(C)(=O)=O)cc1S(=O)(=O)NC(=O)Nc1nc(OC)cc(OC)n1 , which is 0
